Biological target: RORc ligand binding domain (Homo sapiens)
Construct: host or cells: E. coli
Test: In Vitro RORc Ligand Binding Assay (25-[3H]hydroxycholesterol radioligand filtration)
Details: read-out: RORc IC50
IC50 strictly under 1000 nM means label 1; at 1000 nM or over means label 0.

Check out these entries, answers already filled in.
Molecule	Experimental system	Category
C[C@H]1CCC(c2ccccc2)S(=O)(=O)N1Cc1ccc(N2CCN(c3ncncn3)CC2)cc1F (stereo partly drawn)	RORc ligand binding domain (Homo sapiens)	label 1
C[C@H]1CCC(c2ccccc2)S(=O)(=O)N1Cc1ccc(OC2CCOCC2)cc1 (stereo partly drawn)	RORc ligand binding domain (Homo sapiens)	label 0
C[C@H]1CCC(c2ccccc2)S(=O)(=O)N1Cc1ccc(C(=O)NC2CCC(O)C2)cc1 (single isomer, unassigned) [Example 410]	RORc ligand binding domain (Homo sapiens)	label 0
C[C@H]1CCC(c2ccccc2)S(=O)(=O)N1Cc1ccc(N2CC(n3cnnc3)C2)cc1F (stereo partly drawn) [Example 428]	RORc ligand binding domain (Homo sapiens)	label 1
C[C@H]1CCC(c2ccccc2)S(=O)(=O)N1Cc1ccc(N2CCN3C(=O)OCC3C2)cc1F (single isomer, unassigned) [Example 418]	RORc ligand binding domain (Homo sapiens)	label 1
C[C@H]1CCC(c2ccccc2)S(=O)(=O)N1Cc1ccc(N2CCC(C)(n3cnnc3)CC2)cc1F (single isomer, unassigned) [Example 412]	RORc ligand binding domain (Homo sapiens)	label 1
C[C@H]1CCC(c2ccccc2)S(=O)(=O)N1Cc1ccc(OC2CCNC2=O)cc1 (stereo partly drawn)	RORc ligand binding domain (Homo sapiens)	label 0
C[C@H]1CCC(c2ccccc2)S(=O)(=O)N1Cc1ccc(OCC2CCOC2)cc1 (stereo partly drawn)	RORc ligand binding domain (Homo sapiens)	label 1
CC(=O)N1CCN(c2ccc(CN3[C@@H](C)CCC(c4ccccc4)S3(=O)=O)c(F)c2)[C@@H](C(N)=O)C1 (stereo partly drawn)	RORc ligand binding domain (Homo sapiens)	label 1
CC(=O)N1CCC(C(=O)Nc2ccc(CN3[C@@H](C)CCC(c4ccccc4)S3(=O)=O)c(F)c2)CC1 (stereo partly drawn)	RORc ligand binding domain (Homo sapiens)	label 1

Problem: For the molecule CCOC(=O)N1CCC(C(=O)Nc2ccc(CN3[C@@H](C)CCC(c4ccccc4)S3(=O)=O)c(F)c2)CC1 (stereo partly drawn) , is IC50 under 1000 nM?
label 1

Lab note: IC50 threshold 1000 nM. Does this molecule come in strictly under it? C[C@H]1CCC(c2ccccc2)S(=O)(=O)N1Cc1ccc(C(=O)NC2CCC(O)C2)cc1 (single isomer, unassigned) [Example 411]
label 0

Problem: For the molecule CC(Oc1ccc(CN2[C@@H](C)CCC(c3ccccc3)S2(=O)=O)cc1)C1CCOCC1 (stereo partly drawn) , is IC50 under 1000 nM?
label 1

Would you kindly verify if IC50 of C[C@H]1CCC(c2ccccc2)S(=O)(=O)N1Cc1ccc(NCC2CCOCC2)cc1F (stereo partly drawn) is strictly less than 1000 nM?
label 1

* * *

Target: RORc ligand binding domain (Homo sapiens, UniProt P51449)
Construct: host or cells: E. coli
Assay: In Vitro RORc Ligand Binding Assay (25-[3H]hydroxycholesterol radioligand filtration)
Settings: In Vitro RORc Ligand Binding Assay; Table 4; read-out: RORc IC50
Give measured IC50 for each item. Keep answers brief.
Give bare numbers, in nM.

See these solved cases before continuing.
Molecule	Observed
CC(=O)N1CCN(c2ccc(CN3CCCC(c4ccccc4)S3(=O)=O)c(F)c2)CC1 (stereo not shown) [Example 10]	149
C[C@H]1CCC(c2ccccc2)S(=O)(=O)N1Cc1ccc(C(=O)N2CCC3(COC3)C2)cc1 (stereo partly shown)	3010
C[C@H]1CCC(c2ccccc2)S(=O)(=O)N1Cc1ccc(N2CCC(n3cnnc3)CC2)cc1 (single isomer, unassigned) [Example 213]	75
C[C@H]1CCC(c2ccccc2)S(=O)(=O)N1Cc1ccc(C(=O)NCCC2CCCN(S(C)(=O)=O)C2)cc1 (stereo partly shown)	3630
CC(=O)N1CCN(c2ccc(CN3[C@@H](C)CCC(c4ccc(Cl)cc4)S3(=O)=O)c(F)c2)CC1 (single isomer, unassigned) [Example 174]	77
CS(=O)(=O)N1CCC(Oc2ccc(CN3CCCC(c4ccccc4)S3(=O)=O)c(F)c2)CC1 (single isomer, unassigned) [Example 55]	86
C[C@H]1CCC(c2ccccc2)S(=O)(=O)N1Cc1ccc(NC2CCN(S(C)(=O)=O)CC2)c(F)c1 (stereo partly shown)	6
CC(=O)N1CCN(c2ccc(CN3CCCCC(c4ccccc4)S3(=O)=O)c(F)c2)[C@@H](C)C1 (single isomer, unassigned) [Example 335]	8

Batch request: IC50 per item, same order as input.
1. C[C@H]1CCC(c2ccccc2)S(=O)(=O)N1Cc1ccc(OC2CCN(S(C)(=O)=O)CC2)nc1 (single isomer, unassigned) [Example 35]
2. CC1CN(C(=O)c2ccc(CN3[C@@H](C)CCC(c4ccccc4)S3(=O)=O)cc2)CC(=O)N1 (stereo partly shown)
3. CS(=O)(=O)N1CCC(Oc2ccc(CN3CCOCC(c4ccccc4)S3(=O)=O)c(F)c2)CC1 (single isomer, unassigned) [Example 56]
4. C[C@H]1CCC(c2ccccc2)S(=O)(=O)N1Cc1ccc(N2CCN(C(=O)C3CC3)CC2)cc1F (single isomer, unassigned) [Example 58]

1. 1100
2. 2360
3. 94
4. 14

For the record C[C@H]1CCC(c2ccccc2)S(=O)(=O)N1Cc1ccc(C(=O)N2CCOC3(CCOC3)C2)cc1 (stereo partly shown) , what value of IC50 is listed for RORc ligand binding domain (Homo sapiens, UniProt P51449)?
641

* * *

Molecular target: RORc ligand binding domain (Homo sapiens)
Construct: host or cells: E. coli
Sequence (P51449 269-508 limits assumed): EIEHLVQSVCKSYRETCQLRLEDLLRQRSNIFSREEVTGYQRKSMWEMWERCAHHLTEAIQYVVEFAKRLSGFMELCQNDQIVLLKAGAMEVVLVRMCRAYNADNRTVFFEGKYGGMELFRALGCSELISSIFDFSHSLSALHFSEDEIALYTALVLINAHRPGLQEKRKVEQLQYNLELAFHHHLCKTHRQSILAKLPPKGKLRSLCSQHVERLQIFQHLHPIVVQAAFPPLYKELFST
Assay: In Vitro RORc Ligand Binding Assay (25-[3H]hydroxycholesterol radioligand filtration)
Settings: In Vitro RORc Ligand Binding Assay; Table 4; read-out: RORc IC50
Readout kind: IC50 (nM)
Give bare numbers, in nM.

Compound	Observed
CC(=O)N1CCN(c2ccc(CN3CCCCC(c4ccccc4)S3(=O)=O)cc2F)CC1 (single isomer, unassigned) [Example 344]	32
C[C@H]1CCC(c2ccccc2)S(=O)(=O)N1Cc1ccc(N2CCN(C(=O)C3CC3)CC2)cc1 (single isomer, unassigned) [Example 60]	15
O=S1(=O)C(c2ccccc2)CCCCN1Cc1ccc(N2CCC(n3cnnc3)CC2)cc1F (single isomer, unassigned) [Example 323]	2
CC(=O)N1CCN(c2ccc(CN3[C@@H](C)CC(c4ccccc4)S3(=O)=O)c(F)c2)CC1 (single isomer, unassigned) [Example 63]	570

Could you tell me IC50 for each of these compounds? They are listed below.
1. CC(=O)N1CCN(c2ccc(CN3[C@@H](C)CCC(c4ccccc4C#N)S3(=O)=O)c(F)c2)CC1 (single isomer, unassigned) [Example 208]
2. C[C@@H]1CC(c2ccccc2)S(=O)(=O)N(Cc2ccc(N3CCC(n4cnnc4)CC3)cc2F)C1 (stereo partly drawn) [Example 265]

1: 32; 2: 66

* * *

Please respond with reported pIC50 for every item in the list.
Target: RORc ligand binding domain (Homo sapiens, UniProt P51449)
Construct: host or cells: E. coli
Sequence (P51449 269-508 limits assumed): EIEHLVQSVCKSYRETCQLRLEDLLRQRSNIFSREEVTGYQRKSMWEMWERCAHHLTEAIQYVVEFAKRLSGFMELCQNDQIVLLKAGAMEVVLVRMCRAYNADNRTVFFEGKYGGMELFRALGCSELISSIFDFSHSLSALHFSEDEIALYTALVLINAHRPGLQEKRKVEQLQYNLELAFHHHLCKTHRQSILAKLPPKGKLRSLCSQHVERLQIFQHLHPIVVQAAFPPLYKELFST
Assay: In Vitro RORc Ligand Binding Assay (25-[3H]hydroxycholesterol radioligand filtration)
Conditions: RORc IC50
Numbers only, as −log10 of the molar value.

Item smiles	pIC50
O=S1(=O)[C@@H](c2ccccc2)CCC2(CC2)N1Cc1ccc(N2CCC(n3cnnc3)CC2)cc1F	7.43

Below: the item to evaluate.
What does the data say about its pIC50? Entry: O=S1(=O)[C@H](c2ccccc2)CCC2(CC2)N1Cc1ccc(N2CCC(n3cnnc3)CC2)cc1F
6.54

* * *

Exercise: for every item that follows, state its recorded pIC50.
Biological target: RORc ligand binding domain (Homo sapiens, UniProt P51449)
Construct: host or cells: E. coli
Assay: In Vitro RORc Ligand Binding Assay (25-[3H]hydroxycholesterol radioligand filtration)
Settings: In Vitro RORc Ligand Binding Assay; Table 4; read-out: RORc IC50
Numbers only, as −log10 of the molar value.

Compound	Experimental system	Readout kind	Observed
C[C@H]1CCC(c2ccccc2)S(=O)(=O)N1Cc1ccc(C(=O)NC2CCCC2O)cc1 (stereo partly drawn) [Example 270]	RORc ligand binding domain (Homo sapiens, UniProt P51449)	pIC50	5.61
CC(=O)N1CCN(c2ccc(CN3[C@@H](C)CCC(c4ccc(C#N)cc4)S3(=O)=O)c(F)c2)CC1 (single isomer, unassigned) [Example 172]	RORc ligand binding domain (Homo sapiens, UniProt P51449)	pIC50	5.99
C[C@H]1CCC(c2ccccc2)S(=O)(=O)N1Cc1ccc(N2CCNCC2)cc1F (single isomer, unassigned) [Example 96]	RORc ligand binding domain (Homo sapiens, UniProt P51449)	pIC50	5.35

The following compounds each have a reported value; give each one's pIC50.
1. C[C@H](O)C(=O)N1CCN(c2ccc(CN3CCCCC(c4ccccc4)S3(=O)=O)c(F)c2)CC1 (single isomer, unassigned) [Example 304]
2. CS(=O)(=O)N1CCC(Nc2ccc(CN3CCCCC(c4ccccc4)S3(=O)=O)c(F)c2)CC1 (single isomer, unassigned) [Example 345]

1. 7.42
2. 8.10

Return pIC50 measured with RORc ligand binding domain (Homo sapiens, UniProt P51449) given this compound: N#CCC(=O)N1CCN(c2ccc(CN3CCCCC(c4ccccc4)S3(=O)=O)c(F)c2)CC1 (single isomer, unassigned) [Example 303]
7.07
